# MEASURED_TARGET: Grb2 SH2 (UniProt P62993)
# Sequence (P62993 whole entry, looked up): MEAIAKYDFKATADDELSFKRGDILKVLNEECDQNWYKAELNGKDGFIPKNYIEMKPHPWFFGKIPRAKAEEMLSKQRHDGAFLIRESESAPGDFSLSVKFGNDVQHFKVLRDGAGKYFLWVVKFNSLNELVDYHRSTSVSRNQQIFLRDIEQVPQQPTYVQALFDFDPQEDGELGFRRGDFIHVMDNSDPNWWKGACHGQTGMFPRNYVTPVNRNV
# MEASUREMENT_DESCRIPTION: SH2 binding enrichment of the phosphorylated peptide, bacterial display (enrichment ratio); higher = better substrate or ligand; peptides without Tyr show the background
Record 1 whenever SH2 binding enrichment is at 0.9 or higher; record -1 when lower.

Req: Hello, I need to know if NSRYTYKLEVK [USH2A_Y3747] has measured SH2 binding enrichment not below 0.9. Thanks!
Resp: 1

Req: Hello, I need to know if SSREGYVRHHN [FAM83B_Y433_S435R] has measured SH2 binding enrichment not below 0.9. Thanks!
Resp: 1

Req: Hello, I need to know if TYGQVYKGRHV [TNIK_Y40] has measured SH2 binding enrichment not below 0.9. Thanks!
Resp: 1

Req: Hello, I need to know if QTEAQYRFIFM [PTPN11_Y511_YF] has measured SH2 binding enrichment not below 0.9. Thanks!
Resp: -1

Req: Hello, I need to know if KSLFHYRQYSA [CPS1_Y1491] has measured SH2 binding enrichment not below 0.9. Thanks!
Resp: -1

Req: Hello, I need to know if ADRARYSAFGG [RBM4_Y361] has measured SH2 binding enrichment not below 0.9. Thanks!
Resp: -1

Req: Hello, I need to know if CSTIHYNYMCN [TP53_Y234_T230S] has measured SH2 binding enrichment not below 0.9. Thanks!
Resp: 1

###

I'd be grateful if you could share measured SH2 binding enrichment for these entries.
# MEASURED_TARGET: SHP2-C SH2
# MEASUREMENT_DESCRIPTION: SH2 binding enrichment of the phosphorylated peptide, bacterial display (enrichment ratio); higher = better substrate or ligand; peptides without Tyr show the background
Number only, please.

Req: Short answer please: SH2 binding enrichment, SHP2-C SH2, entry ERPGVHTNVVE [F11_Y608_Y608H]
Resp: 0.605

Req: Short answer please: SH2 binding enrichment, SHP2-C SH2, entry KMKGDYFCFLA [YWHAG_Y130_R132C_YF]
Resp: 0.7

Req: Short answer please: SH2 binding enrichment, SHP2-C SH2, entry KGYCGYSYDDI [TMEM230_Y110_R108C]
Resp: 0.993

Req: Short answer please: SH2 binding enrichment, SHP2-C SH2, entry TFEPNYGTVKQ [RAPGEF6_Y1447_YF]
Resp: 0.794

Req: Short answer please: SH2 binding enrichment, SHP2-C SH2, entry SIKDKYVTALY [KCNH2_Y611]
Resp: 0.581

###

I'd be grateful if you could share measured SH2 binding enrichment for these entries.
# MEASURED_TARGET: Grb2 SH2 (UniProt P62993)
# MEASUREMENT_DESCRIPTION: SH2 binding enrichment of the phosphorylated peptide, bacterial display (enrichment ratio); higher = better substrate or ligand; peptides without Tyr show the background
Number only, please.

Req: // SH2 binding enrichment lookup, key: FVGGFYGGCNE [CTSC_Y352_YF]
Resp: 0.895

Req: // SH2 binding enrichment lookup, key: FEPWVYSLSFE [PRKDC_Y647_F649L_YF]
Resp: 0.88

Req: // SH2 binding enrichment lookup, key: SEKVVYRRFTE [NCF1_Y41]
Resp: 0.752

###

# MEASURED_TARGET: FGFR1 (UniProt P11362)
# Sequence (P11362 whole entry, looked up): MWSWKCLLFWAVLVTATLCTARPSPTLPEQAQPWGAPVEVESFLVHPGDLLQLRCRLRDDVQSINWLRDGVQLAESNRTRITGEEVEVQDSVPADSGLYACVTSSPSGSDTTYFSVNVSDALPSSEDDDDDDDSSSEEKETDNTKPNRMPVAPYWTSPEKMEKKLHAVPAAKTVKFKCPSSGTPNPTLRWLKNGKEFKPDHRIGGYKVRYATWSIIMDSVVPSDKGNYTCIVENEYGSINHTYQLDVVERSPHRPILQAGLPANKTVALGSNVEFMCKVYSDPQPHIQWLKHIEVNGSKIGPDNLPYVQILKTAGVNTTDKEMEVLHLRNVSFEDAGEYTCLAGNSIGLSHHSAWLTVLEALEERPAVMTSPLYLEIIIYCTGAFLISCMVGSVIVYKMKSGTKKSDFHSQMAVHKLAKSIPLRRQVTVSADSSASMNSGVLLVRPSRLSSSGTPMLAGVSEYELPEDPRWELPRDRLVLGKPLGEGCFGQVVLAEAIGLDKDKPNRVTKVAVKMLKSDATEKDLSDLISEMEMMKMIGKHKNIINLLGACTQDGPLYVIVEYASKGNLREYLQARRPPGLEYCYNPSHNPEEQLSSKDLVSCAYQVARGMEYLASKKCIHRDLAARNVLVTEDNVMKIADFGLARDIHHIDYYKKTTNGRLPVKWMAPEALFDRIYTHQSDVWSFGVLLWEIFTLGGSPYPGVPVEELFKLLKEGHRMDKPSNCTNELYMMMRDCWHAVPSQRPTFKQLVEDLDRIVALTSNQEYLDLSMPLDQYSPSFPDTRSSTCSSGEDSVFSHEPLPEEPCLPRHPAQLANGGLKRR
# MEASUREMENT_DESCRIPTION: phosphorylation enrichment, bacterial display (enrichment ratio); higher = better substrate or ligand; peptides without Tyr show the background
EXPERIMENTAL_ENDPOINT: phosphorylation enrichment

Req: Short answer please: phosphorylation enrichment, FGFR1 (UniProt P11362), entry KMKGEYFRFLA [YWHAG_Y130_D129E_YF]
Resp: 3.77

Req: Short answer please: phosphorylation enrichment, FGFR1 (UniProt P11362), entry EEALYYLTRVE [SET_Y119_H118Y]
Resp: 9.54

Req: Short answer please: phosphorylation enrichment, FGFR1 (UniProt P11362), entry GLALRYLSDHS [VWF_Y1584]
Resp: 0.565

Req: Short answer please: phosphorylation enrichment, FGFR1 (UniProt P11362), entry LQLLGDRPVYS [CHST6_Y358_Y358D]
Resp: 1.63

###

I'd be grateful if you could share measured phosphorylation enrichment for these entries.
# Tested on: AncSZ
# MEASUREMENT_DESCRIPTION: phosphorylation enrichment, bacterial display (enrichment ratio); higher = better substrate or ligand; peptides without Tyr show the background

Req: // phosphorylation enrichment lookup, key: KSLFHYRQYSA [CPS1_Y1491]
Resp: 0.778

Req: // phosphorylation enrichment lookup, key: DAKTIYDFTDT [PDK1_Y136_A134T]
Resp: 1.07

Req: // phosphorylation enrichment lookup, key: QRRLVYFERGA [RYR1_Y245_G248R_YF]
Resp: 0.847

Req: // phosphorylation enrichment lookup, key: GFIISYREEEQ
Resp: 1.41

Req: // phosphorylation enrichment lookup, key: TLMNAYSSCSH [KIF11_Y231_R234C]
Resp: 0.702

Req: // phosphorylation enrichment lookup, key: STTIHYNFMCN [TP53_Y234_C229S_YF]
Resp: 1

Req: // phosphorylation enrichment lookup, key: KLADMYGGGED [CDH1_Y876]
Resp: 0.766

Req: // phosphorylation enrichment lookup, key: VFSSDYFSFVL [USP24_Y2138_YF]
Resp: 2.28

Req: // phosphorylation enrichment lookup, key: MEIHAYRKLLE [LMNA_Y376]
Resp: 0.804

Req: // phosphorylation enrichment lookup, key: PNQRRYVYYYS [PTEN_Y174_S170N]
Resp: 2.88

Req: // phosphorylation enrichment lookup, key: VVQGIYGYHHY [UFSP2_Y285]
Resp: 0.923

Req: // phosphorylation enrichment lookup, key: TENAGYFFRVS
Resp: 1.25

Req: // phosphorylation enrichment lookup, key: GCRSKSVGLWG [KCNQ1_Y184_Y184S]
Resp: 0.51

Req: // phosphorylation enrichment lookup, key: PATFTYDEFKK [COL8A2_Y648_YF]
Resp: 1.49

Req: // phosphorylation enrichment lookup, key: RRIHSYRCHLW [VHL_Y112_G114C]
Resp: 0.967

Req: // phosphorylation enrichment lookup, key: TLEKFYFAFPG [SLC1A1_Y51]
Resp: 1.53

Req: // phosphorylation enrichment lookup, key: GGGMIYPLDLF
Resp: 0.913

Req: // phosphorylation enrichment lookup, key: MSNSAYVKREV [SCN1A_Y1694_F1692S]
Resp: 0.563

Req: // phosphorylation enrichment lookup, key: EATKGYLDDPT [G6PD_Y322]
Resp: 0.859

Req: // phosphorylation enrichment lookup, key: TLSGIYQFSIA [FOXL2_Y81_I84S_YF]
Resp: 1.31

Req: // phosphorylation enrichment lookup, key: GDAMLYYPSVS [GPR143_Y177_A173D]
Resp: 0.95

Req: // phosphorylation enrichment lookup, key: LRLSSYSTTIR [CYP7B1_Y365]
Resp: 1.41

Req: // phosphorylation enrichment lookup, key: TPGPNYCPGFN [USH2A_Y463_R464C_YF]
Resp: 0.334

Req: // phosphorylation enrichment lookup, key: APSHAYHGGVL [ANO1_Y981]
Resp: 0.52

Req: // phosphorylation enrichment lookup, key: DEGVNHFMSKG [FBXO8_Y156_Y156H]
Resp: 0.61

Req: // phosphorylation enrichment lookup, key: MEFLPYGSLRD [JAK2_Y934_YF]
Resp: 0.857

Req: // phosphorylation enrichment lookup, key: ATHSRYRLNDY [CLDN14_Y233_G232R]
Resp: 0.562

Req: // phosphorylation enrichment lookup, key: KCLAVYQAGAR [APOE_Y180_R176C]
Resp: 0.737

Req: // phosphorylation enrichment lookup, key: EPSLDYMVTKI [CPS1_Y768]
Resp: 1.22

Req: // phosphorylation enrichment lookup, key: RHPFFYAPELL [ALB_Y174_YF]
Resp: 1.61

Req: // phosphorylation enrichment lookup, key: HQNGMYRLHQD [SGSH_Y89_G90R]
Resp: 0.814

Req: // phosphorylation enrichment lookup, key: ACQGKYTPSGQ [ALDOA_Y343]
Resp: 0.598

Req: // phosphorylation enrichment lookup, key: NDFGNYNQQPS [HNRNPA2B1_Y306]
Resp: 0.764

Req: // phosphorylation enrichment lookup, key: CDKEYYSVHNK [MET_Y1235_Y1230C]
Resp: 2.06

Req: // phosphorylation enrichment lookup, key: RHPYFFAPELL [ALB_Y174_Y174F]
Resp: 1.22

Req: // phosphorylation enrichment lookup, key: SGDINYGQFAQ [PLCG1_Y210_T209N]
Resp: 0.727

Req: // phosphorylation enrichment lookup, key: MKALGYFAVVK [OPA1_Y498_T503K]
Resp: 1.05

Req: // phosphorylation enrichment lookup, key: RNIQQCNSFVS [PRKAR1A_Y373_Y373C]
Resp: 1.28

Req: // phosphorylation enrichment lookup, key: PFSEPYADFGG [APBA1_Y187_YF]
Resp: 1
